- Tested on: P. morganii IFO 3168
- test.summary: Minimal Inhibitory Concentration (MIC), agar dilution method
- Assay type: cell-based
- Parameters: unit not given here
- condition.parameters: Test Microorganism (13) P. morganii IFO 3168; Trypticase soy agar, 37°C for 18 hours
measured.property: Minimal Inhibitory Concentration (MIC)

Below, 5 compounds whose answers are already recorded.
• CC(C)(O)[C@@H]1C(=O)N2C(C(=O)O)=C(SCCNC=N)C[C@H]12 = 25
• CC(C)(O)[C@@H]1C(=O)N2C(C(=O)O)=C(SCCN)C[C@H]12 = 50
• CC(C)(O)[C@@H]1C(=O)N2C(C(=O)O)=C(SCCN3CCCCC3)C[C@H]12 = 25
• CC(C)(O)[C@@H]1C(=O)N2C(C(=O)O)=C(Sc3cccnn3)C[C@H]12 = 3.13
• CN(C)CCSC1=C(C(=O)O)N2C(=O)[C@@H](C(C)(C)O)[C@H]2C1 = 50

Please give the measured Minimal Inhibitory Concentration (MIC) for this compound: "CC(C)(O)[C@@H]1C(=O)N2C(C(=O)O)=C(SCCN3CCCC3)C[C@H]12"
50

Please give the measured Minimal Inhibitory Concentration (MIC) for this compound: "CC(C)(O)[C@@H]1C(=O)N2C(C(=O)O)=C(SCCCN)C[C@H]12"
50

Please give the measured Minimal Inhibitory Concentration (MIC) for this compound: "CC(C)(O)[C@@H]1C(=O)N2C(C(=O)O)=C(SCCCNC=N)C[C@H]12"
25

###

The following compounds are listed with their measured Minimal Inhibitory Concentration (MIC) values.
- Test system: P.-mirabilis IFO 3849
- test.summary: Minimal Inhibitory Concentration (MIC), agar dilution method
- Format: cell-based
- Parameters: unit not given here
- condition.parameters: Test Microorganism (12) P.-mirabilis IFO 3849; Trypticase soy agar, 37°C for 18 hours
- Procedure: Minimal Inhibitory Concentration (MIC) The Minimal Inhibitory Concentrations of the tested compounds were determined according to the agar dilution method. Namely, 1.0 ml each of aqueous solution of the tested compounds diluted by serial dilutions was poured into test petri dishes, subsequently 9.0 ml each of Trypticase soy agar was poured into the dishes and mixed. On each of the mixed agar plates, one loopful of bacterial suspension (about 10^8 CFU/ml) of test microorganism was streaked. […]
Respond using a number only.

Please give the measured Minimal Inhibitory Concentration (MIC) for this compound: "CC(C)(O)[C@@H]1C(=O)N2C(C(=O)O)=C(SCCN3CCCC3)C[C@H]12"
50

Please give the measured Minimal Inhibitory Concentration (MIC) for this compound: "CC(C)(O)[C@@H]1C(=O)N2C(C(=O)O)=C(SCCN3CCCCC3)C[C@H]12"
25

Please give the measured Minimal Inhibitory Concentration (MIC) for this compound: "CC(C)(O)[C@@H]1C(=O)N2C(C(=O)O)=C(Sc3cccnn3)C[C@H]12"
3.13

Please give the measured Minimal Inhibitory Concentration (MIC) for this compound: "CC(C)(O)[C@@H]1C(=O)N2C(C(=O)O)=C(SCCN)C[C@H]12"
50

Please give the measured Minimal Inhibitory Concentration (MIC) for this compound: "CN(C)CCSC1=C(C(=O)O)N2C(=O)[C@@H](C(C)(C)O)[C@H]2C1"
50

Please give the measured Minimal Inhibitory Concentration (MIC) for this compound: "CC(C)(O)[C@@H]1C(=O)N2C(C(=O)O)=C(SCCNC=N)C[C@H]12"
25

Please give the measured Minimal Inhibitory Concentration (MIC) for this compound: "CC(C)(O)[C@@H]1C(=O)N2C(C(=O)O)=C(SCCCN)C[C@H]12"
50

Please give the measured Minimal Inhibitory Concentration (MIC) for this compound: "CC(C)(O)[C@@H]1C(=O)N2C(C(=O)O)=C(SCCCNC=N)C[C@H]12"
25
